# measured_target: Vasopressin V1a receptor (Homo sapiens, UniProt P37288)
# Sequence (P37288 whole entry): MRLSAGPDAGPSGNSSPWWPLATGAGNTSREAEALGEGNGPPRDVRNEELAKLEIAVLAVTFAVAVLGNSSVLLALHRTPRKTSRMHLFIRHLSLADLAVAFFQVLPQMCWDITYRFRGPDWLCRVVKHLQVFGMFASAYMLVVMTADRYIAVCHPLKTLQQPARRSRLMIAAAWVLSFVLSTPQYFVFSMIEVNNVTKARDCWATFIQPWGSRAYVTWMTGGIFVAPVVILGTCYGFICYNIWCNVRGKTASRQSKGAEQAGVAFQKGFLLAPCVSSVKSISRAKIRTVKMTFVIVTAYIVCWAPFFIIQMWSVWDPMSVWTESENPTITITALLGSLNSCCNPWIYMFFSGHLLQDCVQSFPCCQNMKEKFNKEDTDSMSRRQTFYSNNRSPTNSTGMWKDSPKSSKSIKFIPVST
measure_name: IC50

Look at each compound and report its IC50.
1. O=C(Nc1ccc(C(=O)N2Cc3cccn3Cc3ccccc32)c(Cl)c1)c1ccc(F)cc1Cl
2. O=C(Nc1ccc(C(=O)N2Cc3cccn3Cc3ccccc32)c(Cl)c1)c1ccc(Cl)cc1Cl
3. Cc1ccc(F)cc1C(=O)Nc1ccc(C(=O)N2Cc3cccn3Cc3ccccc32)cc1Cl
4. Cc1ccccc1C(=O)Nc1ccc(C(=O)N2Cc3cccn3Cc3ccccc32)c(Cl)c1
5. O=C(Nc1ccc(C(=O)N2Cc3cccn3Cc3ccccc32)c(Cl)c1)c1cccc(C(F)(F)F)c1F

Ans.
["37 nM", "640 nM", "25 nM", "59 nM", "4400 nM"]

Look at each compound and report its IC50.
1. O=C(Nc1ccc(C(=O)N2Cc3cccn3Cc3ccccc32)cc1)c1ccc(Cl)cc1Cl
2. Cc1ccc(F)cc1C(=O)Nc1ccc(C(=O)N2Cc3cccn3Cc3ccccc32)cc1

Ans.
1. 15 nM
2. 20 nM
